# Test details: Pharmacokinetic experiment, oral capsule in Beagle dogs
# Assay type: in vivo
# Run conditions: male, Beagle, dog, plasma, po, 5 mg/kg, male Beagle dogs, read-out: Tmax
Experimental endpoint: Tmax (h)
// return numeric value only (unit: h, not printed)

Exam item: Please give the documented Tmax of Cc1c(C(=O)Nc2ccc(S(C)(=O)=O)c(F)c2)cn(CCO)c1-c1ccccc1C(F)(F)F [Crystalline form I]
Marked response: 4
